Test system: purified human Hsp90
test_method_notes: Binding Assay: fluorescence polarization with BODIPY-labeled geldanamycin
run_parameters: 5 μM compound, BODIPY-GM 10 nM, Hsp90 30 nM
value_type: % Inhibition at 5 μM Compound Concentration (%)

> print(dat)
                                   molecule  observed.measurement
1  CC(C)(C)OC(=O)NC(CCn1cnc(N)c2nc(Sc3cc4c(cc3Br)OCO4)nc1-2)C1CCOCC1 (centres unmarked) [Example 683]                     5
2  COc1ccc(OC)c(Sc2nc3c(N)ncn(CCc4ccc(C(=O)O)cc4)c-3n2)c1 [Example 82]                     5
3  COc1ccc(OC)c(Sc2nc3c(N)ncn(CCc4ccc(NC(=O)OC(C)(C)C)cc4)c-3n2)c1 [Example 215]                     0

[a] CN1CCCC1CCn1cnc(N)c2nc(Sc3cc4c(cc3Br)OCO4)nc1-2 (centres unmarked) [Example 352]
[b] COc1ccc(CCn2cnc(N)c3nc(Sc4cc5c(cc4Br)OCO5)nc2-3)cc1OC [Example 297]
Enquiry: Lower value for measured % Inhibition at 5 μM Compound Concentration? Options: a , b # answer = label of selected item
Return: b
(b: 8.0%, a: 35%)

###

system_tested: purified human Hsp90
test_method_notes: Binding Assay: fluorescence polarization with BODIPY-labeled geldanamycin
run_parameters: BODIPY-GM 10 nM, Hsp90 30 nM
Excerpt: Compound binding to purified Hsp90 was monitored using BODIPY-labeled geldanamycin (BODIPY-GM) in a fluorescence polarization assay adapted from Kim et al. (Journal of Biomolecular Screening 2004, 9(5):375-381). […] Parallel and perpendicular fluorescence measurements were read (LJL BioSystems Analyst AD plate reader) with excitation/emission wavelengths of 485/530 nm. […]
pIC50: −log10 of the molar value.
value_type: pIC50

Reference set (3 entries):
> print(dat)
                                   compound  observed.measurement
1  CS(=O)(=O)N1CCCC(CCn2c(Sc3cc4c(cc3Br)OCO4)nc3c(N)ncnc32)C1 (centres unmarked)                  7.46
2  CCOc1cc(CCn2c(Sc3cc(OC)ccc3OC)nc3c(N)ncnc32)ccc1OC                  5.00
3  Nc1ncnc2c1nc(Sc1cc3c(cc1Br)OCO3)n2CCC1CCCCN1S(=O)(=O)C(F)(F)F (centres unmarked)                  6.09

[1] Nc1ncnc2c1nc(Sc1cc3c(cc1Br)OCO3)n2CCc1cccc(I)c1
[2] CCNC(=O)N1CCC(CCn2c(Sc3cc4c(cc3Br)OCO4)nc3c(N)ncnc32)CC1
Enquiry: Lower value for measured pIC50? Options: 1 , 2 # answer = label of selected item
Return: 1
(1: 6.22, 2: 6.89)

###

System: purified human Hsp90
test_method_notes: Binding Assay: fluorescence polarization with BODIPY-labeled geldanamycin
run_parameters: 5 μM compound, BODIPY-GM 10 nM, Hsp90 30 nM
value_type: % Inhibition at 5 μM Compound Concentration (%)

Reference set (5 entries):
> print(dat)
                                   molecule  observed.measurement
1  COc1ccc(OC)c(Sc2nc3c(N)ncn(CCc4ccccc4Br)c-3n2)c1                     0
2  C[C@H](NC(=O)OC(C)(C)C)C(=O)N1CCCC(Cn2cnc(N)c3nc(Sc4cc5c(cc4Br)OCO5)nc2-3)C1 (some centres unmarked)                 43.00
3  COc1ccc(OC)c(Sc2nc3c(N)ncn(CC4(c5ccc(Cl)cc5)CC4)c-3n2)c1                   0.0
4  COc1ccc(OC)c(Sc2nc3c(N)ncn(CCc4cccs4)c-3n2)c1                    18
5  CCOc1cc(CCn2cnc(N)c3nc(Sc4cc5c(cc4Br)OCO5)nc2-3)ccc1OC                     0

[P] COc1cc(CCn2cnc(N)c3nc(Sc4cc5c(cc4Br)OCO5)nc2-3)cc(OC)c1OC
[Q] COc1cc(CCn2cnc(N)c3nc(Sc4cc5c(cc4Br)OCO5)nc2-3)cc(OC)c1
Enquiry: Sort P and Q by % Inhibition at 5 μM Compound Concentration descending and give the first. # answer = label of selected item
Return: Q

[P] COc1ccc(OC)c(Sc2nc3c(N)ncn(C4Cc5ccccc5C4O)c-3n2)c1 (centres unmarked)
[Q] COc1ccc(C#N)cc1Sc1nc2c(N)ncn(CCc3ccccc3Cl)c-2n1
[R] N=C(N)N1CCC(CCn2cnc(N)c3nc(Sc4cc5c(cc4Br)OCO5)nc2-3)CC1
[S] COc1ccc(OC)c(Sc2nc3c(N)ncn(CCc4cccc(Br)c4)c-3n2)c1
[T] Nc1ncn(CC(O)c2ccc(Cl)cc2Cl)c2nc(Sc3cc4c(cc3Br)OCO4)nc1-2 (centres unmarked)
Enquiry: Arrange items by their % Inhibition at 5 μM Compound Concentration values in increasing order. Reply with the item labels sorted in the order that was asked for.
Return: P, T, S, Q, R
(P: 0%, T: 9%, S: 17%, Q: 40.0%, R: 83.00%)

[P] COc1ccc(Sc2nc3c(N)ncn(CCc4ccccc4)c-3n2)cc1Cl
[Q] COc1ccc(Sc2nc3c(N)ncn(CCc4ccccc4)c-3n2)c(OC)c1
Enquiry: Sort P and Q by % Inhibition at 5 μM Compound Concentration descending and give the first. # answer = label of selected item
Return: Q
(Q: 6%, P: 0%)

[A] Nc1ncn(CCC2CCN(C=O)CC2)c2nc(Sc3cc(OCc4ccccc4)c(OCc4ccccc4)cc3Br)nc1-2
[B] CC(C)(C)C(=O)N1CCC(CCn2cnc(N)c3nc(Sc4cc5c(cc4Br)OCO5)nc2-3)CC1
Enquiry: Lower value for measured % Inhibition at 5 μM Compound Concentration? Options: A , B # answer = label of selected item
Return: A

[A] CCOC(=O)[C@@H]1C[C@H](CCn2cnc(N)c3nc(Sc4cc5c(cc4Br)OCO5)nc2-3)CCN1C(=O)OC(C)(C)C (relative stereo)
[B] COc1ccc(OC)c(Sc2nc3c(N)ncn(CCc4ccsc4)c-3n2)c1
Enquiry: Sort A and B by % Inhibition at 5 μM Compound Concentration descending and give the first. # answer = label of selected item
Return: B
(B: 18%, A: 0%)

[I] CC(C)(C)OC(=O)NC(CCn1cnc(N)c2nc(Sc3cc4c(cc3Br)OCO4)nc1-2)C1CCC1 (centres unmarked)
[II] COc1ccc(OC)c(Sc2nc3c(N)ncnc3n2CCC2CCCCC2)c1
[III] CC(C)(C)OC(=O)N1CC[C@H](CCn2cnc(N)c3nc(Sc4cc5c(cc4Br)OCO5)nc2-3)C1
[IV] Nc1ncn(CCc2cccs2)c2nc(Sc3cc4c(cc3Br)OCO4)nc1-2
[V] CC(C)(C)OC(=O)N1CCCC(CCn2cnc(N)c3nc(Sc4cc5c(cc4Br)OCO5)nc2-3)C1 (centres unmarked)
Enquiry: Order the items by recorded % Inhibition at 5 μM Compound Concentration; the first position goes to the largest value. Reply with the item labels sorted in the order that was asked for.
Return: II, IV, III, V, I
(II: 37%, IV: 11%, III: 7%, V: 3%, I: 0%)

[P] Nc1ncn(CC(c2ccccc2)C2CCCCC2)c2nc(Sc3cc4c(cc3Br)OCO4)nc1-2 (centres unmarked)
[Q] CC(C)(C)OC(=O)N1CCC(CCn2cnc(N)c3nc(Sc4cc5c(cc4Br)OCO5)nc2-3)C1 (centres unmarked)
[R] COc1ccc(OC)c(Sc2nc3c(N)ncnc3n2CCc2ccc(S(=O)(=O)O)cc2)c1
[S] Nc1ncn(CCc2ccccc2)c2nc(Sc3ccc4c(c3)OCO4)nc1-2
Enquiry: Order the items by recorded % Inhibition at 5 μM Compound Concentration; the first position goes to the largest value. Reply with the item labels sorted in the order that was asked for.
Return: R, Q, S, P

[I] COc1ccc(OC)c(Sc2nc3c(N)ncnc3n2Cc2ccc([N+](=O)[O-])cc2)c1
[II] CCC(C)C(Cn1cnc(N)c2nc(Sc3cc(OC)ccc3OC)nc1-2)c1ccccc1 (centres unmarked)
[III] COc1ccc(OC)c(Sc2nc3c(N)ncn(CCc4ccccc4C)c-3n2)c1
Enquiry: Order the items by recorded % Inhibition at 5 μM Compound Concentration; the first position goes to the largest value. Reply with the item labels sorted in the order that was asked for.
Return: II, III, I
(II: 41%, III: 7%, I: 0%)

###

system_tested: purified human Hsp90
test_method_notes: Binding Assay: fluorescence polarization with BODIPY-labeled geldanamycin
run_parameters: BODIPY-GM 10 nM, Hsp90 30 nM
value_type: IC50 (µM)

Reference set (6 entries):
> print(dat)
                                   molecule         system.tested  value.type  observed.measurement
1  Nc1ncnc2c1nc(Sc1ccc3ncoc3c1)n2CCc1ccccc1 [Example 283]  purified human Hsp90        IC50                    12
2  Nc1ncnc2c1nc(Sc1cc3c(cc1Br)OCO3)n2CCc1cccc2ccccc12 [Example 157]  purified human Hsp90        IC50                   0.5
3  Nc1ncnc2c1nc(Sc1cc3c(cc1Br)OCO3)n2CCc1cccc(F)c1F [Example 161]  purified human Hsp90        IC50                  0.32
4  COc1ccc(OC)c(Sc2nc3c(N)ncnc3n2CCC(NC(=O)OC(C)(C)C)C2CCSCC2)c1 (stereo not shown) [Example 668]  purified human Hsp90        IC50                   4.8
5  COc1ccccc1CCn1c(Sc2cc3c(cc2Br)OCO3)nc2c(N)ncnc21 [Example 287]  purified human Hsp90        IC50                  0.06
6  CS(=O)(=O)N1CCCCC1CCn1c(Sc2cc3c(cc2Br)OCO3)nc2c(N)ncnc21 (stereo not shown) [Example 372]  purified human Hsp90        IC50                   0.1

[P] CCC(Cn1c(Sc2cc3c(cc2Br)OCO3)nc2c(N)ncnc21)c1ccccc1 (stereo not shown) [Example 57]
[Q] COc1ccc(OC)c(Sc2nc3c(N)ncn(CCN4CCCCC4)c-3n2)c1 [Example 490]
[R] CC(=O)N1CCC(CCn2c(Sc3cc4c(cc3C#N)OCO4)nc3c(N)ncnc32)CC1 [Example 620]
[S] COc1ccc(I)c(Sc2nc3c(N)ncnc3n2CCc2ccccc2)c1 [Example 322]
Enquiry: Order the items by recorded IC50; the first position goes to the largest value. Reply with the item labels sorted in the order that was asked for.
Return: Q, P, R, S

[a] Nc1ncnc2c1nc(Sc1cc3c(cc1Br)OCO3)n2CCn1ccnc1 [Example 381]
[b] COc1ccc(OC)c(Sc2nc3c(N)ncnc3n2CCc2cccc(Br)c2)c1 [Example 77]
[c] Nc1ncnc2c1nc(Sc1cc3c(cc1Br)OCO3)n2CCC1CCN(C(=O)C2CC2(F)F)CC1 (stereo not shown) [Example 524]
[d] COc1ccc(OC)c(Sc2nc3c(N)ncnc3n2CCN2CCNC(=O)C2)c1 [Example 634]
Enquiry: Arrange items by their IC50 values in increasing order. Reply with the item labels sorted in the order that was asked for.
Return: c, a, b, d
(c: 0.1 µM, a: 0.39 µM, b: 1.9 µM, d: 8.1 µM)
